tested on: M14 melanoma; experiment: NCI-60 one-dose screen, 48 h (100 = growth as untreated, 0 = no growth, -100 = all killed); conditions: 10 µM unless noted
About 83,000 compounds went through this panel and 20% of them were active in at least one assay; those are over-represented in the sample as a whole.
growth strictly less than 90% = rule met. Otherwise rule not met.

Worked set:
1) CN1CCN(CCNC(=O)c2cccc(CN3c4cccc5c4C(=Cc4cccnc43)N(C)C5=O)c2)CC1 = rule met
2) O=C(/C=C/c1ccc(F)cc1)Nc1ncc(Cc2ccc(F)cc2)s1 = rule met
3) C[C@]12CCc3c(ccc4cc(O)ccc34)[C@@H]1C[C@H](O)[C@@H]2O = rule not met
4) O=c1c(/C=C/c2ccco2)nnc2sc(Nc3ccc(Cl)cc3)nn12 = rule not met
5) COc1cc(OC)cc(-c2ccc(-c3ccc(C(=N)N)cn3)s2)c1 = rule not met
6) COc1ccc(/C(C)=C(\c2ccc(OCCN3CCOCC3)cc2)c2ccc(OC(=O)C3CCCCC3)cc2)cc1 = rule not met
7) Cc1ccc2c(c1)C(C)Cc1c(ncnc1-n1cnc3cc(C)ccc31)N2C (centres undefined) = rule met
8) CN(C)CCCn1c2nc(=O)[nH]c(=O)c-2nc2cc(Cl)c(Cl)cc21 = rule met

For this molecule, is growth lower than 90%? [2H]C([2H])([2H])Oc1cc(F)ccc1/C=C/C(=O)/C=C(/C=C/c1ccc(F)cc1OC([2H])([2H])[2H])OB(F)F rule met

For this molecule, is growth lower than 90%? COc1nc2ccc(C)cc2cc1/C=[N+](\[O-])c1ccccc1 rule met

For this molecule, is growth lower than 90%? CCOC(=O)c1nnn(Cc2cc(=O)oc3c2ccc2ccccc23)c1C rule not met

For this molecule, is growth lower than 90%? CC(=O)c1c(C)nc2ccccc2c1/C=C/c1cccc(C)c1 rule met

For this molecule, is growth lower than 90%? COc1ccc(-c2ccccc2)cc1-c1c(Nc2cc(Cl)cc(Cl)c2O)c(=O)c1=O rule met

For this molecule, is growth lower than 90%? Oc1ccccc1C=Nc1ccc(N2CCN(c3ccccc3)CC2)cc1 rule not met

For this molecule, is growth lower than 90%? CN1CCN(c2ccc(/C=C/C(=O)c3ccc(O)cc3)cc2)CC1 rule not met

For this molecule, is growth lower than 90%? O=C(Cc1ccc(F)cc1)c1ccccc1 rule not met
